- PROTOCOL SUMMARY: Cytotoxicity against human MT4 cells incubated for 5 days by Cell Titer Glo assay
- Format: toxicity, cell-based
- EXPERIMENTAL SETUP: time 5 day
MEASURE: CC50 at 120 h

{"STRUCTURE SMILES STRING": "C[C@H](N[P@@](=O)(OC[C@@]1(C#N)O[C@@H](c2ccc3c(N)ncnn23)[C@H](O)[C@@H]1O)Oc1ccccc1)C(=O)OC1CCCCC1", "CC50 at 120 h": "> 50 µM"}
{"STRUCTURE SMILES STRING": "COC(=O)[C@H](C)N[P@](=O)(OC[C@@]1(C#N)O[C@@H](c2ccc3c(N)ncnn23)[C@H](O)[C@@H]1O)Oc1ccccc1", "CC50 at 120 h": "> 38 µM"}
{"STRUCTURE SMILES STRING": "Nc1ncnn2c([C@@H]3O[C@H](CO)[C@@H](O)[C@H]3O)ccc12", "CC50 at 120 h": "< 0.01 µM"}

Task item: Param item = `C[C@H](N[P@](=O)(OC[C@@]1(C#N)O[C@@H](c2ccc3c(N)ncnn23)[C@H](O)[C@@H]1O)Oc1ccccc1)C(=O)OC1CCCCC1` ; retrieve measured CC50 at 120 h.
Reply: > 50 µM

Task item: So what's the measured CC50 at 120 h for this one? `[N-]=[N+]=N[C@]1(CO)O[C@@H](c2ccc3c(N)ncnn23)[C@H](O)[C@@H]1O`
Reply: > 50 µM

Task item: // CC50 at 120 h lookup, key: `N#C[C@]1(CO)O[C@@H](c2ccc3c(N)ncnn23)[C@H](O)[C@@H]1O`
Reply: > 50 µM

Task item: Give its CC50 at 120 h value. Item: `C=C[C@]1(CO)O[C@@H](c2ccc3c(N)ncnn23)[C@H](O)[C@@H]1O`
Reply: > 50 µM

Task item: Give its CC50 at 120 h value. Item: `C[C@]1(CO)O[C@@H](c2ccc3c(N)ncnn23)[C@H](O)[C@@H]1O`
Reply: > 50 µM

Task item: Would you mind telling me what CC50 at 120 h value was observed for `C[C@H](N[P@](=O)(OC[C@@]1(C#N)O[C@@H](c2ccc3c(N)ncnn23)[C@H](O)[C@@H]1O)Oc1ccccc1)C(=O)OC1CCOCC1` ?
Reply: > 57 µM

###

- PROTOCOL SUMMARY: Cytotoxicity against human MT4 cells incubated for 5 days by Cell Titer Glo assay
- Type: toxicity, cell-based
- EXPERIMENTAL SETUP: time 5 day
A collection of molecules and their measured CC50 at 120 h

{"STRUCTURE SMILES STRING": "Nc1ncnn2c([C@@H]3O[C@@](CO)(CCl)[C@@H](O)[C@H]3O)ccc12", "MEASURE": "CC50 at 120 h", "VAL": "> 50 µM"}
{"STRUCTURE SMILES STRING": "CC(C)OC(=O)[C@H](C)N[P@](=O)(OC[C@@]1(C#N)O[C@@H](c2ccc3c(N)ncnn23)[C@H](O)[C@@H]1O)Oc1ccccc1", "MEASURE": "CC50 at 120 h", "VAL": "> 57 µM"}

The record that follows has no CC50 at 120 h shown yet.
Task item: I'd like to know its CC50 at 120 h. The molecule in question is `N#C[C@]1(CO)O[C@@H](c2ccc3c(N)ncnn23)[C@H](F)[C@@H]1O`
Reply: > 50 µM

Ref: ChEMBL document CHEMBL5550189
